# Lookup of reported Plant response rating, Barnyardgrass keyed by entry
Tested on: barnyardgrass
Experiment Summary: Test A pre-/postemergence herbicide test
Format: in vivo, Echinochloa crus-galli
Condition Label: Preemergence, 125 g ai/ha; 0 to 100 scale where 0 is no effect and 100 is complete control

Use these answered entries as a reference point.
> print(dat)
                                   molecule  value.measured
1  CN1CC(c2cccc(C(F)(F)F)c2)C(C(=O)Nc2cccc(F)c2F)C1=O (stereo not drawn) [Compound 305]              80
2  O=C1NCC(c2cccc(Br)c2)C1C(=O)Nc1ccccc1Cl (stereo not drawn) [Compound 311]              70
3  O=C1NCC(c2cccc(Br)c2)C1C(=O)Nc1ccc(F)c(F)c1F (stereo not drawn) [Compound 310]              90
4  O=C1NCC(c2ccc(Br)c(Br)c2)C1C(=O)Nc1ccccc1Cl (stereo not drawn) [Compound 343]              20

Recorded Plant response rating, Barnyardgrass for CCN1CC(c2ccc(C(F)(F)F)cc2)C(C(=O)Nc2ccccc2F)C1=O (stereo not drawn) [Compound 335] , please? 0

Recorded Plant response rating, Barnyardgrass for CN1CC(c2ccc(F)cc2)C(C(=O)Nc2ccccc2F)C1=O (stereo not drawn) [Compound 270] , please? 60

Recorded Plant response rating, Barnyardgrass for CCN1CC(c2ccc(C(F)(F)F)cc2)C(C(=O)Nc2cccc(F)c2F)C1=O (stereo not drawn) [Compound 336] , please? 50

Recorded Plant response rating, Barnyardgrass for CN1CC(c2ccc(F)c(F)c2)C(C(=O)Nc2cccc(F)c2F)C1=O (stereo not drawn) [Compound 303] , please? 90

Recorded Plant response rating, Barnyardgrass for O=C1NCC(c2cnn(CC(F)(F)F)c2)C1C(=O)Nc1ccccc1F (stereo not drawn) [Compound 298] , please? 0

###

# Lookup of reported Plant response rating keyed by entry
Test system: wheat, spring
Experiment Summary: Test D pre-/postemergence herbicide test
Format: in vivo, Triticum aestivum
Condition Label: Postemergence; 250 g ai/ha; Wheat, Spring; scale 0 to 100
Give your answer as a number; write no unit.

Use these answered entries as a reference point.
> print(dat)
                                   molecule     measured.parameter  value.measured
1  O=C1NCC(c2ccc(Cl)c(F)c2)C1C(=O)Nc1cccc(F)c1F (stereo not shown) [Compound 52]  Plant response rating               0
2  O=C1NCC(c2ccc(F)c(F)c2)C1C(=O)Nc1ccccc1C(F)(F)F (racemic) [Compound 6]  Plant response rating               5
3  O=C1NCC(c2ccc(F)c(F)c2)C1C(=O)Nc1cccc(F)c1F (stereo not shown) [Compound 17]  Plant response rating               0

Please examine the following record next.
Recorded Plant response rating for O=C1NCC(c2ccc(C(F)(F)F)cc2)C1C(=O)Nc1ccccc1F (stereo not shown) [Compound 231] , please? 0

###

Test system: blackgrass
Experiment Summary: Test C pre-/postemergence herbicide test
Format: in vivo, Alopecurus myosuroides
Condition Label: Preemergence, 250 g ai/ha
# Lookup of reported Plant response rating (scale of 0 to 100), Blackgrass keyed by entry
Give your answer as a number; write no unit.

> print(dat)
                                   compound  value.measured
1  O=C1NCC(c2cccc(OC(F)F)c2)C1C(=O)Nc1ccccc1F (centres unmarked) [Compound 323]              85

Recorded Plant response rating (scale of 0 to 100), Blackgrass for O=C1NCC(c2cccc(OC(F)F)c2)C1C(=O)Nc1cccc(F)c1F (centres unmarked) [Compound 224] , please? 85

Recorded Plant response rating (scale of 0 to 100), Blackgrass for CC(C)c1cccc(C2CNC(=O)C2C(=O)Nc2ccccc2F)c1 (centres unmarked) [Compound 318] , please? 45

Recorded Plant response rating (scale of 0 to 100), Blackgrass for O=C1NCC(c2ccc(C(F)(F)F)cc2)C1C(=O)Nc1ccccc1F (centres unmarked) [Compound 231] , please? 90

Recorded Plant response rating (scale of 0 to 100), Blackgrass for O=C1NCC(c2cccc(OC(F)(F)F)c2)C1C(=O)Nc1ccccc1F (centres unmarked) [Compound 69] , please? 35

###

System: soybean
Experiment Summary: Test C pre-/postemergence herbicide test
Format: in vivo, Glycine max
Condition Label: Postemergence; 250 g ai/ha; scale 0 to 100 (0 no effect, 100 complete control)
Measured Parameter: Plant response rating, Soybean
Give your answer as a number; write no unit.

> print(dat)
                                   compound  value.measured
1  O=C1NCC(c2ccc(F)c(F)c2)C1C(=O)Nc1ccc(F)c(F)c1F (centres unmarked)               5
2  Cc1c(F)cccc1NC(=O)C1C(=O)NCC1c1ccc(F)c(F)c1 (racemic)               5
3  O=C1NCC(c2ccc(F)c(F)c2)C1C(=O)Nc1cccc(F)c1F (racemic)               5
4  O=C1NCC(c2ccc(C(F)(F)F)cc2)C1C(=O)Nc1ccccc1F (centres unmarked)              10

Please examine the following record next.
Query Plant response rating, Soybean on soybean for O=C1NCC(c2cccc(OC(F)F)c2)C1C(=O)Nc1cccc(F)c1F (centres unmarked) 5

###

Tested on: barnyardgrass
Experiment Summary: Test A pre-/postemergence herbicide test
Assay type: in vivo, Echinochloa crus-galli
Condition Label: Postemergence, 125 g ai/ha; 0 to 100 scale, 0 is no effect, 100 is complete control
Measured Parameter: Plant response rating, Barnyardgrass
Give your answer as a number; write no unit.

> print(dat)
                                   molecule    target.desc                    measured.parameter  value.measured
1  O=C1NCC(c2cc(F)cc(F)c2)C1C(=O)Nc1ccccc1Cl (racemic)  barnyardgrass  Plant response rating, Barnyardgrass              80
2  O=C1NCC(c2ccc(C(F)(F)F)cc2F)C1C(=O)Nc1ccccc1C(F)(F)F (racemic)  barnyardgrass  Plant response rating, Barnyardgrass               0
3  O=C1NCC(c2ccc(Cl)cc2)C1C(=O)Nc1cccc(F)c1F (stereo not shown)  barnyardgrass  Plant response rating, Barnyardgrass              60
4  O=C1NCC(c2ccc(F)cc2)C1C(=O)Nc1ccccc1F (stereo not shown)  barnyardgrass  Plant response rating, Barnyardgrass              50
5  CCc1cccc(C2CNC(=O)C2C(=O)Nc2ccccc2F)c1 (racemic)  barnyardgrass  Plant response rating, Barnyardgrass              90

Recorded Plant response rating, Barnyardgrass for O=C1NCC(c2ccc3c(c2)OC(F)(F)O3)C1C(=O)Nc1ccc(F)c(F)c1F (racemic) , please? 70

Recorded Plant response rating, Barnyardgrass for O=C1NCC(c2ccc(Cl)c(C(F)(F)F)c2)C1C(=O)Nc1ccccc1F (racemic) , please? 70

###

Tested on: barnyardgrass
Experiment Summary: Test A pre-/postemergence herbicide test
Type: in vivo, Echinochloa crus-galli
Condition Label: Preemergence, 125 g ai/ha; visual rating on 0 to 100 scale (0 no effect, 100 complete control)
# Lookup of reported Barnyardgrass plant response rating keyed by entry
Give your answer as a number; write no unit.

> print(dat)
                                   compound    target.desc                   measured.parameter  value.measured
1  O=C1NCC(c2ccc(F)c(F)c2)C1C(=O)Nc1cccc[n+]1[O-] (centres unmarked) [Compound 47]  barnyardgrass  Barnyardgrass plant response rating               0
2  O=C1NCC(c2ccccc2)C1C(=O)Nc1ccc(Br)cc1F (racemic) [Compound 84]  barnyardgrass  Barnyardgrass plant response rating               0
3  O=C1NCC(c2ccc(F)c(F)c2)C1C(=O)Nc1ccccn1 (centres unmarked) [Compound 45]  barnyardgrass  Barnyardgrass plant response rating              10

Recorded Barnyardgrass plant response rating for O=C1NCC(c2ccsc2)C1C(=O)Nc1ccccc1F (racemic) [Compound 29] , please? 0

Recorded Barnyardgrass plant response rating for O=C1NCC(c2ccccc2)C1(Br)C(=O)Nc1ccccc1F (centres unmarked) [Compound 93] , please? 50

###

System: deadnettle
Experiment Summary: Test D pre-/postemergence herbicide test
Type: in vivo, Lamium amplexicaule
Condition Label: Postemergence; 62 g ai/ha; Deadnettle; scale 0 to 100
Measured Parameter: Plant response rating
Give your answer as a number; write no unit.

Use these answered entries as a reference point.
> print(dat)
                                   compound     measured.parameter  value.measured
1  O=C1NCC(c2ccc(Cl)c(F)c2)C1C(=O)Nc1cccc(F)c1F (stereo not shown)  Plant response rating               0
2  O=C1NCC(c2cc(F)c(F)cc2F)C1C(=O)Nc1cccc(F)c1F (stereo not shown)  Plant response rating               0
3  O=C1NCC(c2ccc(F)c(F)c2)C1C(=O)Nc1cccc(F)c1F (stereo not shown)  Plant response rating               0

Please examine the following record next.
Recorded Plant response rating for O=C1NCC(c2ccc(C(F)(F)F)cc2)C1C(=O)Nc1ccccc1F (stereo not shown) , please? 70
